# assayed system: human α7 nAChR (Homo sapiens (Human))
# assay info: Automated patch-clamp electrophysiology functional assay (Assay A), IonFlux HT
# Assay type: cell-based
# setup conditions: HEK cell line stably expressing human RIC-3 and human α7; whole-cell population patch; 40 μM acetylcholine; read-out: α7 nAChR EC50
Field 'label' (enum: Met / Not met). Set to Met when EC50 is strictly under 1000 nM; else Not met.

1. NS(=O)(=O)c1ccc(C2CC2c2cncc(N3CCCC3)c2)cc1 (racemic) [Example G2]    Not met
2. CC(C)c1ccc(C2CC2c2ccc(S(N)(=O)=O)cc2)nc1 (single isomer, unassigned) [Example A3]    Met
3. NS(=O)(=O)c1ccc(C2CC2c2ccnc(NCCc3ccccc3)n2)cc1 (racemic) [Example D10]    Not met
4. CC(C)c1ccnc(C2CC2c2ccc(S(N)(=O)=O)cc2)n1 (racemic) [Example C3]    Not met
5. CC(C)c1cnc(C2CC2c2ccc(S(N)(=O)=O)cc2)nc1 (single isomer, unassigned) [Example C1]    Met

---

Entries and their EC50 values follow.
# assayed system: human α7 nAChR (Homo sapiens (Human), UniProt P36544)
# Sequence (P36544 23-502): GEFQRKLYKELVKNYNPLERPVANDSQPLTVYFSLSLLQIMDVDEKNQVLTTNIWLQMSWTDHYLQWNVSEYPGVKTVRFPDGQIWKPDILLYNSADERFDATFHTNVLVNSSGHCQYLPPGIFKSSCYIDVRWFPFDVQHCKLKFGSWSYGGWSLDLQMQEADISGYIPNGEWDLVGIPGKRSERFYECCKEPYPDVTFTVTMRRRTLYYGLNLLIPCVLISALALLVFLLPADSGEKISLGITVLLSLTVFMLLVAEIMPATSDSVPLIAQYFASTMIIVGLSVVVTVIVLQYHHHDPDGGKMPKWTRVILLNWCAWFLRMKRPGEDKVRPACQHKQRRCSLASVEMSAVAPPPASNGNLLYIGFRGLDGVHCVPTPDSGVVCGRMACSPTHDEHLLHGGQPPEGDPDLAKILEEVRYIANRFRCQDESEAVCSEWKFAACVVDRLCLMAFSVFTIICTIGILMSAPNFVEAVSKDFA
# assay info: Automated patch-clamp electrophysiology functional assay (Assay A), IonFlux HT
# Assay type: cell-based
# setup conditions: HEK cell line stably expressing human RIC-3 and human α7; whole-cell population patch; 40 μM acetylcholine; read-out: α7 nAChR Potency
measurement label: EC50

1. CC(C)c1ccc(C2CC2c2ccc(S(N)(=O)=O)cc2)nc1 (racemic) [Example A6]    500 to 5000 nM
2. NS(=O)(=O)c1ccc(C2CC2c2cccc(C3CCCC3)n2)cc1 (single isomer, unassigned)    500 to 5000 nM
3. NS(=O)(=O)c1ccc([C@H]2[C@H](c3nccc(-c4cccc(F)c4)n3)C2(F)F)cc1    500 to 5000 nM
4. CC(C)c1cncc(C2CC2c2ccc(S(N)(=O)=O)cc2)n1 (racemic)    500 to 5000 nM
5. NS(=O)(=O)c1ccc(C2CC2c2cccc(-n3cncn3)c2)cc1 (racemic)    5000 to 50000 nM
6. NS(=O)(=O)c1ccc(C2CC2c2ccc(C3CCCC3)cn2)cc1 (single isomer, unassigned)    500 to 5000 nM
7. CC(C)c1cccc(C2CC2c2ccc(S(N)(=O)=O)cc2)n1 (single isomer, unassigned) [Example 1]    100 to 500 nM
8. NS(=O)(=O)c1ccc(C2CC2c2ccnc(NCCc3ccccc3)n2)cc1 (racemic)    500 to 5000 nM
9. NS(=O)(=O)c1ccc(C2CC2c2ccnc(-c3ccccc3)n2)cc1 (racemic)    500 to 5000 nM
10. NS(=O)(=O)c1ccc([C@@H]2C[C@H]2c2ccnc(C3CCC3)c2)cc1 (racemic)    100 to 500 nM
11. CC(C)c1ccnc(C2CC2c2ccc(S(N)(=O)=O)cc2)c1 (single isomer, unassigned) [Example A2]    100 to 500 nM
12. CC(C)c1cccnc1C1CC1c1ccc(S(N)(=O)=O)cc1 (racemic)    500 to 5000 nM
13. NS(=O)(=O)c1ccc([C@@H]2C[C@H]2c2ccc(-n3ccnc3)cc2)cc1 (racemic)    500 to 5000 nM
14. CC(C)c1ccc(C2CC2c2ccc(S(N)(=O)=O)cc2)nc1 (single isomer, unassigned) [Example A5]    500 to 5000 nM
15. CC(C)c1ccc(C2C(c3ccc(S(N)(=O)=O)cc3)C2[Si](C)(C)C)cn1 (stereo not drawn)    500 to 5000 nM
16. NS(=O)(=O)c1ccc([C@@H]2C[C@H]2c2ccc(-n3cccn3)nc2)cc1 (racemic)    500 to 5000 nM
17. NS(=O)(=O)c1ccc([C@@H]2C[C@H]2c2cccc(C3CCCC3)n2)cc1 (racemic) [Example A12]    100 to 500 nM
18. CC(C)c1ccc(C2CC2c2ccc(S(N)(=O)=O)cc2)nc1 (single isomer, unassigned) [Example A3]    500 to 5000 nM
19. CC(C)c1cnc(C2CC2c2ccc(S(N)(=O)=O)cc2)nc1 (single isomer, unassigned) [Example C1]    100 to 500 nM
20. NS(=O)(=O)c1ccc([C@@H]2C[C@H]2c2nccc(-c3cccc(F)c3)n2)cc1 (single isomer, unassigned)    500 to 5000 nM
21. CC(C)c1cc(C2CC2c2ccc(S(N)(=O)=O)cc2)ccn1 (single isomer, unassigned) [Example 8]    500 to 5000 nM
22. CC(C)(C#N)c1ccc([C@@H]2C[C@H]2c2ccc(S(N)(=O)=O)cc2)cn1 (racemic)    500 to 5000 nM
23. CC1(C)[C@H](c2ccc(S(N)(=O)=O)cc2)[C@H]1c1nccc(-c2cncc(C(F)(F)F)c2)n1    500 to 5000 nM
24. CN(C)c1nccc(C2CC2c2ccc(S(N)(=O)=O)cc2)n1 (racemic) [Example D1]    500 to 5000 nM
25. NS(=O)(=O)c1ccc([C@@H]2C[C@H]2c2cccc(C3CCCC3)n2)cc1 (single isomer, unassigned) [Example A4]    500 to 5000 nM
26. CC(C)Oc1ccc(C2CC2c2ccc(S(N)(=O)=O)cc2)cn1 (racemic)    500 to 5000 nM
27. NS(=O)(=O)c1ccc(C2CC2c2nccc(-c3cccc(F)c3)n2)cc1 (single isomer, unassigned)    100 to 500 nM

---

# assayed system: UniProt P36544
# assay info: Automated patch-clamp electrophysiology functional assay (Assay A), IonFlux HT
# Assay type: cell-based
# setup conditions: HEK cell line stably expressing human RIC-3 and human α7; whole-cell population patch; 40 μM acetylcholine; read-out: α7 nAChR Potency
measurement label: EC50

1) CC(C)c1cnc(C2CC2c2ccc(S(N)(=O)=O)cc2)nc1 (racemic) [Example C2]    500 to 5000 nM
2) CC(C)c1cc(C2CC2c2ccc(S(N)(=O)=O)cc2)ccn1 (racemic) [Example E1]    500 to 5000 nM
3) CC(C)c1cccc(C2CC2c2ccc(S(N)(=O)=O)cc2)n1 (racemic) [Example A10]    500 to 5000 nM
4) Cc1nc(-c2cccc([C@@H]3C[C@H]3c3ccc(S(N)(=O)=O)cc3)c2)no1 (relative stereo)    100 to 500 nM

---

# assayed system: human α7 nAChR (Homo sapiens (Human), UniProt P36544)
# assay info: Automated patch-clamp electrophysiology functional assay (Assay A), IonFlux HT
# Format: cell-based
# setup conditions: HEK cell line stably expressing human RIC-3 and human α7; whole-cell population patch; 40 μM acetylcholine; read-out: α7 nAChR EC50
pEC50: −log10 of the molar value.
Entries and their pEC50 values follow.
measurement label: pEC50

1. CC(C)c1ccc(C2CC2c2ccc(S(N)(=O)=O)cc2)nc1 (racemic) [Example A6]    6.15
2. CN(C)c1nccc(C2CC2c2ccc(S(N)(=O)=O)cc2)n1 (racemic) [Example D1]    5.54
3. NS(=O)(=O)c1ccc([C@@H]2C[C@H]2c2nccc(-c3cncc(C(F)(F)F)c3)n2)cc1 (single isomer, unassigned)    5.48
4. NS(=O)(=O)c1ccc(C2CC2c2ccnc(Nc3ccccc3)n2)cc1 (racemic)    5.48
5. NS(=O)(=O)c1ccc([C@@H]2C[C@H]2c2cccc(C3CCOCC3)n2)cc1 (racemic)    5.25
6. NS(=O)(=O)c1ccc([C@@H]2C[C@H]2c2nccc(-c3cccc(F)c3)n2)cc1 (single isomer, unassigned)    5.72
7. CC(C)Oc1ccc(C2CC2c2ccc(S(N)(=O)=O)cc2)cn1 (racemic)    6.00
8. NS(=O)(=O)c1ccc([C@@H]2C[C@H]2c2cccc(-n3cccn3)n2)cc1 (racemic)    5.48
9. NS(=O)(=O)c1ccc(C2CC2c2cccc(-n3cncn3)c2)cc1 (racemic)    5.28
10. NS(=O)(=O)c1ccc([C@@H]2C[C@H]2c2ccc(C3CCCC3)cn2)cc1 (racemic)    5.82
11. NS(=O)(=O)c1ccc(C2CC2c2nccc(-c3cncc(C(F)(F)F)c3)n2)cc1 (single isomer, unassigned)    6.62
12. NS(=O)(=O)c1ccc(C2CC2c2cccc(C3CCCC3)n2)cc1 (single isomer, unassigned)    5.82
13. CC(C)(C#N)c1ccc([C@@H]2C[C@H]2c2ccc(S(N)(=O)=O)cc2)cn1 (racemic)    5.47
14. CC(C)c1ccnc(C2CC2c2ccc(S(N)(=O)=O)cc2)c1 (single isomer, unassigned) [Example A2]    6.39
15. CC1(C)[C@H](c2ccc(S(N)(=O)=O)cc2)[C@H]1c1nccc(-c2cncc(C(F)(F)F)c2)n1    5.85
